procedure.details: clinical
test.settings: human, plasma, oral, 20 mg, futibatinib AUCinf, futibatinib alone; geometric mean (geometric CV%); n = 24
experimental.readout: AUC(0-inf) (ng·h/mL)
Note: unit ng·h/mL is implicit; provide only the numeric part.

query: Fill blank: measured AUC(0-inf) of the compound C=CC(=O)N1CC[C@H](n2nc(C#Cc3cc(OC)cc(OC)c3)c3c(N)ncnc32)C1 is ____.
result: 582

====

procedure.details: clinical
test.settings: human, plasma, oral, digoxin AUCinf, digoxin + rosuvastatin, without futibatinib, geometric mean (geometric CV%), n = 20
experimental.readout: AUC(0-inf) (ng·h/mL)
Note: unit ng·h/mL is implicit; provide only the numeric part.

query: Fill blank: measured AUC(0-inf) of the molecule C[C@H]1O[C@@H](O[C@H]2[C@@H](O)C[C@H](O[C@H]3[C@@H](O)C[C@H](O[C@H]4CC[C@@]5(C)[C@H](CC[C@@H]6[C@@H]5C[C@@H](O)[C@]5(C)[C@@H](C7=CC(=O)OC7)CC[C@]65O)C4)O[C@@H]3C)O[C@@H]2C)C[C@H](O)[C@@H]1O [digoxin] is ____.
result: 17.7

====

procedure.details: clinical
test.settings: human, plasma, oral, 20 mg
experimental.readout: half-life (h)
Note: unit h is implicit; provide only the numeric part.

query: Fill blank: measured half-life of the molecule C=CC(=O)N1CC[C@H](n2nc(C#Cc3cc(OC)cc(OC)c3)c3c(N)ncnc32)C1 is ____.
result: 2.5

====

procedure.details: clinical
test.settings: human, plasma, oral, digoxin C max, digoxin + rosuvastatin with futibatinib 20 mg once daily, geometric mean (geometric CV%), n = 20
experimental.readout: Cmax
# number then unit; no other words

query: Fill blank: measured Cmax of the compound C[C@H]1O[C@@H](O[C@H]2[C@@H](O)C[C@H](O[C@H]3[C@@H](O)C[C@H](O[C@H]4CC[C@@]5(C)[C@H](CC[C@@H]6[C@@H]5C[C@@H](O)[C@]5(C)[C@@H](C7=CC(=O)OC7)CC[C@]65O)C4)O[C@@H]3C)O[C@@H]2C)C[C@H](O)[C@@H]1O [digoxin] is ____.
result: 0.953 ng/mL

====

procedure.details: clinical
test.settings: human, plasma, oral, 20 mg
experimental.readout: Vd/F
# number then unit; no other words

query: Fill blank: measured Vd/F of the compound C=CC(=O)N1CC[C@H](n2nc(C#Cc3cc(OC)cc(OC)c3)c3c(N)ncnc32)C1 [futibatinib] is ____.
result: 132 L

====

procedure.details: clinical
test.settings: human, plasma, po, 20 mg
experimental.readout: AUC(0-t) (ng·h/mL)
Note: unit ng·h/mL is implicit; provide only the numeric part.

query: Fill blank: measured AUC(0-t) of the compound C=CC(=O)N1CC[C@H](n2nc(C#Cc3cc(OC)cc(OC)c3)c3c(N)ncnc32)C1 is ____.
result: 580
